# credit: patent US20240409645A1

Catalogue of koff values
Target: T1, human IL-2Rβ (human, UniProt P14784 27-240, limits assumed)
T1 construct: recombinant protein, coated or immobilised; also called hu IL-2R; IL-2R beta
T1 sequence: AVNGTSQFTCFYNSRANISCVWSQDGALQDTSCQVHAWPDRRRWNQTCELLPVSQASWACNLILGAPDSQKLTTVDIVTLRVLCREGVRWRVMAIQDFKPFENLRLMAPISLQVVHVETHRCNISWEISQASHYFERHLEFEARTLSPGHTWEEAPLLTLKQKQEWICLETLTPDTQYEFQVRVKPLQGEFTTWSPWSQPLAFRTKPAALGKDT
Assay: SPR, P.E. off-rate
Only the number, expressed in s⁻¹, is required.

So, FJ1427 P035MP02H04 (VHH, soluble VHH in periplasmic extract; also called clone nr) VHH: QVQLVESGGGLVQAGDSLRLSCATSGLTFSSYALGWFRQAPGKKREFVAATTRGGGRTMYAVSTEGRFTCSRDNDKNTVYLLMNSLKPKDTAVYYCAAMTSYYSGTYYPDSSDFDIWGQGTQVTVSS ? Its koff was 0.00051

So, FJ1427 P035MP02C01 (VHH, soluble VHH in periplasmic extract; also called clone nr; 99) VHH: QVQLVESGGGLVQPGGSLGLSCAASGFTFDNYAMSWVRQAPGKGLEWVSSITGAGRGTHYADSVKGRFTISRDNAKNTLYLQMNSLKPEDTAVYYCAKYSSSTYYPPTPARGTDYRGPGTQVTVSS ? Its koff was 0.000789

So, FJ1427 P035MP02D10 (VHH, soluble VHH in periplasmic extract; also called clone nr) VHH: EVQLVESGGGLVQAGGSLRLSCAASGRTFSSDAKAWFRQAPGKEREFVAAITWAGRGTDYADSVKDRFTITRDNAKNMVYLQMSSLKPEDTAVYYCALNPTGVIGPGFRNSNRYDYWGQGTQVTVAS ? Its koff was 0.00109

So, FJ1427_P035MP02G10 (VHH, soluble VHH in periplasmic extract; also called clone nr) VHH: QVQLVESGGGLVQAGGSLRLSCAASGRTFSTTEMGWFRQAPGKEREFVAAITWTGRGTMYAESVEGRFTISRENAKNMVYLQMNSLKPEDTAIYYCAAARRGRAAVRSEGGYDFWGQGTQVTVSS ? Its koff was 0.000307
